B1: mRNA-splicing (parent)
chain: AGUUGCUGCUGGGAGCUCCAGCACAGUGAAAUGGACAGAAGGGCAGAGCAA

variants of: B1; test: exon inclusion enrichment index; higher = more inclusion; WT1 exon 5 minigene, HEK293
Returns condition met if the recorded exon inclusion enrichment index is greater than or equal to 0.6, and condition not met otherwise.

INPUT: Tell me whether exon inclusion enrichment index is at least 0.6 here: "AGUUCGCGCCGCGAGCUCCAGCACAGUGAAAUGGACAGAAGGGCAGAGCAA"
OUTPUT: condition not met

INPUT: Tell me whether exon inclusion enrichment index is at least 0.6 here: "AGUUCACACAGGGAGCUCCAGCACAGUGAAAUGGACAGAGCGGCAGAGCAA"
OUTPUT: condition met

INPUT: Tell me whether exon inclusion enrichment index is at least 0.6 here: "AGUUCACACAGGGAGCUCCAGCACAGUGAAAUGGACAGAAGAGCAGAGCAA"
OUTPUT: condition not met

INPUT: Tell me whether exon inclusion enrichment index is at least 0.6 here: "AGUUAUAUAUGGGUCCUCCAGCACAGUGAAAUGGACAGAAGGGCAGAGCAA"
OUTPUT: condition not met

INPUT: Tell me whether exon inclusion enrichment index is at least 0.6 here: "AGUUCACACAGGGAGUACCAGCACAGUGAAAUGGACAGAAGGGCAGAGCAA"
OUTPUT: condition not met

INPUT: Tell me whether exon inclusion enrichment index is at least 0.6 here: "AGUUACCACCGGGAGCUCCCCCACAGUGAAAUGGACAGAAGGGCAGAGCAA"
OUTPUT: condition met

INPUT: Tell me whether exon inclusion enrichment index is at least 0.6 here: "AGUUCGCGCCGGGAGCACCAGCACAGUGAAAUGGACAGAAGGGCAGAGCAA"
OUTPUT: condition met

INPUT: Tell me whether exon inclusion enrichment index is at least 0.6 here: "AGUCUCUGCUGGGAGCUCCAGCACAGUGAAAUGGACAGAAGGGCAGAGCAA"
OUTPUT: condition not met

INPUT: Tell me whether exon inclusion enrichment index is at least 0.6 here: "AGUUCUUCUCGGGAGCUCCAGUCCAGUGAAAUGGACAGAAGGGCAGAGCAA"
OUTPUT: condition met

INPUT: Tell me whether exon inclusion enrichment index is at least 0.6 here: "AGUUCGCUUCGGGAGCUCCAGCACAGUGAAAUGGACAGAAGGGCAGAGCAA"
OUTPUT: condition met

INPUT: Tell me whether exon inclusion enrichment index is at least 0.6 here: "AGUUCUUCUCCCGAGCUCCAGCACAGUGAAAUGGACAGAAGGGCAGAGCAA"
OUTPUT: condition met
